Test: Food effect PK study, two single oral 1000 mg doses of abiraterone acetate, fed (high fat) vs fasted;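 note: AUC to last measurable concentration (AUClast)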
Format: in vivo, human
Settings: human, plasma, oral, 1000 mg, Patient 13; Fed
measure: AUC(0-t) (µM·h)
The answer is to be given in µM·h; state only the numeric part.

Give the measured AUC(0-t) for C[C@]12CC[C@H](O)CC1=CC[C@@H]1[C@@H]2CC[C@]2(C)C(c3cccnc3)=CC[C@@H]12
10.8

###

Assay: Pharmacokinetic study of abiraterone in hormone refractory prostate cancer patients, oral doses 250-2000 mg/day, fasted
Format: in vivo, human
Conditions: male, human; mean; 250 mg/day abiraterone acetate oral, fasted; plasma
Description: A group of 15 subjects was divided into five groups. Members of each group were orally administered doses of 250 mg/day, 500 mg/day, 750 mg/day, 1000 mg/day or 2000 mg/day once a day. Before administration the subjects had fasted. PK blood samples were measured at 1, 2, 4, 6, 8, 24, and 72 hours post dose. […]
measure: AUC(0-t) (µM·h)
The answer is to be given in µM·h; state only the numeric part.

Give the measured AUC(0-t) for C[C@]12CC[C@H](O)CC1=CC[C@@H]1[C@@H]2CC[C@]2(C)C(c3cccnc3)=CC[C@@H]12
1.25

Values were extracted from patent US20090124587A1.
